test: chemical genetic growth profiling, strain panel (AID 1159580);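 further: tested at 20 µM; growth read once vehicle control cultures reached saturation at 30 °C; 1 = growth at the plate median or of vehicle wells; lower values mean less growth of the strain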; settings: S. cerevisiae deletion strains, growth OD, locus YBR231C, strain swc5
Screen size: about 5,500 compounds; about 2,000 (36%) were called active. Roughly 18% stayed inconclusive and do not appear here. No stated cut-off is given here; in the data, active means normalized growth mostly below about 0.91 (no sharp cut-off); inconclusive means no clear call, values can overlap the other calls; inactive means mostly above about 0.92. The list shows a part of the results.
Outcome field: choose from active, inactive

Which outcome did this test record for the compound CN1CC(=O)N=C1N ?
inactive

Try this compound next: CC(=O)Oc1cc(OC(C)=O)c2c(c1)O[C@H](c1ccc(OC(C)=O)c(OC(C)=O)c1)[C@H](OC(C)=O)C2
inactive

Try this compound next: O=C(O[C@@H]1Cc2c(O)cc(O)cc2O[C@@H]1c1cc(O)c(O)c(O)c1)c1cc(O)c(O)c(O)c1
active

Try this compound next: C[C@]12CCC(=O)C=C1C=CC1C2CC[C@@]2(C)C1CC[C@@]2(O)CCC(=O)O (some centres undefined)
inactive

Try this compound next: C#CCN(C)Cc1ccccc1
inactive

Try this compound next: OCC(O)CN1CCN(c2ccccc2)CC1 (centres undefined)
inactive

Try this compound next: O=C(Oc1cc(O)cc2c1C[C@@H](OC(=O)c1cc(O)c(O)c(O)c1)[C@@H](c1cc(O)c(O)c(O)c1)O2)c1cc(O)c(O)c(O)c1
inactive

Try this compound next: O=C(O[C@@H]1Cc2c(O)cc(O)cc2O[C@@H]1c1ccc(O)c(O)c1)c1cc(O)c(O)c(O)c1
active

Try this compound next: CC(=O)Oc1cc(OC(C)=O)c2c(c1)O[C@H](c1ccc(OC(C)=O)c(OC(C)=O)c1)[C@@H](OC(C)=O)C2
inactive

* * *

Please respond with reported normalized growth for every item in the list.
experiment: chemical genetic growth profiling, strain panel (AID 1159580);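 further: tested at 20 µM; growth read once vehicle control cultures reached saturation at 30 °C; 1 = growth at the plate median or of vehicle wells; lower values mean less growth of the strain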; settings: S. cerevisiae deletion strains, growth OD, locus YML016C, strain PPZ1, hits give low values
Hit rate of the full screen: of about 5,500 compounds, about 2,000 (36%) were called active. Inconclusive results (about 18%) are left out. Some of the results follow.
When you answer, write just the number.

What does the record list as normalized growth for CC1COc2c(N3CCN(C)CC3)c(F)cc3c(=O)c(C(=O)O)cn1c23 (configuration not stated) ?
1

Try this molecule next: CCCCNC(=O)NS(=O)(=O)c1ccc(C)cc1
0.996

Try this molecule next: COc1ccc2c(c1)OC/C(=C\c1ccc(OC)c(O)c1)C2=O
0.791

Try this molecule next: Nc1nc(=S)c2[nH]cnc2[nH]1
1.01

Try this molecule next: CCn1cc(C(=O)O)c(=O)c2cc(F)c(N3CCNC(C)C3)c(F)c21 (configuration not stated)
0.991

Try this molecule next: CN1C2CCC1CC(OC(c1ccccc1)c1ccccc1)C2 (configuration not stated)
0.981

Try this molecule next: CC1CCc2cc(F)cc3c(=O)c(C(=O)O)cn1c23 (configuration not stated)
0.986

* * *

assay: chemical genetic growth profiling, strain panel (AID 1159580);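 further: tested at 20 µM; growth read once vehicle control cultures reached saturation at 30 °C; 1 = growth at the plate median or of vehicle wells; lower values mean less growth of the strain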; conditions: S. cerevisiae deletion strains, growth OD, locus YGL086W, strain mad1, hits give low values
In all, about 5,500 compounds went through this assay and about 2,000 (36%) were called active. Not shown: some 18% with an inconclusive outcome. Some of the results follow.
Please respond with reported normalized growth for every item in the list.
When you answer, write just the number.

What does the record list as normalized growth for CCC(C)C(=O)OC1CC2(C)C(c3ccoc3)OC(=O)CC23OC2(C)OC34C(OC(=O)C(C)C)C3(O)C(OC(=O)C5(C)OC5C)C5(C)CC3(O)C(C)(C5C(=O)OC)C14O2 (stereo not given) ?
1

Try this compound next: CCC(C)C(=O)O[C@@H]1C[C@@]2(C)[C@H](c3ccoc3)OC(=O)CC23OC2(C)O[C@]14[C@]1(C)[C@@H](CC(=O)OC)C5(C)CC1(O)[C@](O)(C5OC(=O)C1(C)OC1C)[C@@H](OC(C)=O)[C@]34O2 (stereo not given in full)
1.01

Try this compound next: O=C(O)c1cc2cc(F)ccc2[nH]1
1.02

Try this compound next: CC[C@@H](C(=O)C(C)[C@@H](O)[C@H](C)CCc1ccc(C)c(O)c1C(=O)O)C1OC(CC)(C2CC[C@](O)(CC)[C@H](C)O2)C[C@@H]1C (stereo not given in full)
1.05

Try this compound next: NCCc1cnc[nH]1
1

Values were extracted from PubChem BioAssay AID1159580.
